- EXPERIMENTAL_TARGET: mAChR M4 (Homo sapiens, UniProt P08173)
- Construct: expressed in transfected cells; host or cells: CHO-K1 cells stably transfected with M4 cDNA and chimeric G-protein Gqi5
- Sequence (P08173 1-479): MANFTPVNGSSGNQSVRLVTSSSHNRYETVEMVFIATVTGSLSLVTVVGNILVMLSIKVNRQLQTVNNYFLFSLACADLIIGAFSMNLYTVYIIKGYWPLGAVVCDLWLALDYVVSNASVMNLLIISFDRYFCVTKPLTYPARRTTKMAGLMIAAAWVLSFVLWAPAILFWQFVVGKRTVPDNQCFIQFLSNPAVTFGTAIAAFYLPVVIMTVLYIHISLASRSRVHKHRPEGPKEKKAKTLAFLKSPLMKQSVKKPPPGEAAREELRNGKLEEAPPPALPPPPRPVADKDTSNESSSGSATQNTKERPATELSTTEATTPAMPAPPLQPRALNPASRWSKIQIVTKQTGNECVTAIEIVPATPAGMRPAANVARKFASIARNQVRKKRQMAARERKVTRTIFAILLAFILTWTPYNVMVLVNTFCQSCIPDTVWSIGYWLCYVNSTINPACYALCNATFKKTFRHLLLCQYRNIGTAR
- TEST_NAME: mAChR M4 cell-based functional assay (calcium mobilization, potentiation of EC20 acetylcholine response)
- ASSAY_CONTEXT: mAChR M4 cell-based functional assay; >10,000 estimated for low potency compounds without plateau; read-out: EC50
pEC50: −log10 of the molar value.

COMPOUND	EXPERIMENTAL_TARGET	pEC50
Cc1nnc2sc(C(=O)NC3CN(C(=O)OC(C)(C)C)C3)c(N)c2c1C	mAChR M4 (Homo sapiens, UniProt P08173)	7.54
COC1(c2ccccc2)CN(C(=O)c2sc3nnc(C)c(C)c3c2N)C1	mAChR M4 (Homo sapiens, UniProt P08173)	6.33
Cc1nnc2sc(C(=O)N3CC(C)(F)C3)c(N)c2c1C	mAChR M4 (Homo sapiens, UniProt P08173)	6.07
Cc1nnc2sc(C(=O)NCc3ccc(C#N)cc3)c(N)c2c1C	mAChR M4 (Homo sapiens, UniProt P08173)	6.92
COc1ccc(CNC(=O)c2sc3nnc(C)c(C)c3c2N)cc1	mAChR M4 (Homo sapiens, UniProt P08173)	6.60
Cc1nnc2sc(C(=O)NCc3ccc(OCC(F)F)cc3)c(N)c2c1C	mAChR M4 (Homo sapiens, UniProt P08173)	7.64
Cc1nnc2sc(C(=O)NC3CCN(c4ccccc4)C3)c(N)c2c1C (stereo not drawn)	mAChR M4 (Homo sapiens, UniProt P08173)	7.62
Cc1nnc2sc(C(=O)N3CCC(NC(=O)CC4CCCCC4)C3)c(N)c2c1C (stereo not drawn)	mAChR M4 (Homo sapiens, UniProt P08173)	5.47
Cc1nnc2sc(C(=O)N3CCC(c4ccccc4)C3C)c(N)c2c1C (stereo not drawn)	mAChR M4 (Homo sapiens, UniProt P08173)	6.62
Cc1nnc2sc(C(=O)NCc3ccc(N4CCOCC4)cc3)c(N)c2c1C	mAChR M4 (Homo sapiens, UniProt P08173)	6.92
Cc1nnc2sc(C(=O)N3CCC(c4ccccc4)CC3)c(N)c2c1C	mAChR M4 (Homo sapiens, UniProt P08173)	5.41
COc1ncc(CNC(=O)c2sc3nnc(C)c(C)c3c2N)cc1F	mAChR M4 (Homo sapiens, UniProt P08173)	7.60
COc1cccc(S(=O)(=O)N2CC(NC(=O)c3sc4nnc(C)c(C)c4c3N)C2)c1	mAChR M4 (Homo sapiens, UniProt P08173)	7.00
COc1ccc(C2CC2NC(=O)c2sc3nnc(C)c(C)c3c2N)cc1 (stereo not drawn)	mAChR M4 (Homo sapiens, UniProt P08173)	7.85
Cc1cncc(-c2ccc(CNC(=O)c3sc4nnc(C)c(C)c4c3N)cc2)c1	mAChR M4 (Homo sapiens, UniProt P08173)	6.70
Cc1nnc2sc(C(=O)NCCN(C)S(=O)(=O)c3ccccc3)c(N)c2c1C	mAChR M4 (Homo sapiens, UniProt P08173)	5.40
Cc1nnc2sc(C(=O)NCc3ccc(-c4ccc5c(c4)OCO5)cc3)c(N)c2c1C	mAChR M4 (Homo sapiens, UniProt P08173)	6.00
Cc1nnc2sc(C(=O)NCc3ccc4c(c3)CCO4)c(N)c2c1C	mAChR M4 (Homo sapiens, UniProt P08173)	7.38

The reported numbers originate from patent US9868746B2.
